Cited source: PubChem BioAssay (NCI)

Test system: HCC-2998 colon
ASSAY OVERVIEW: NCI tumour cell line growth inhibition, 48 h
Task for the reader: assign each of the following compounds its reported TGI.

# count of solved cases: 3
CC(=O)Oc1ccccc1C(=O)Nc1cc(C(C)C)ccc1C | 20 µM
CNC(=O)c1cc(N2CCc3cc(NC(=O)Nc4ccc(N5CCOCC5)c(C(F)(F)F)c4)ccc32)ccn1 | > 33.3 µM
c1n[nH]cc1-c1nc2ccc3[nH]ncc3c2c2c1CCCC2 | 7.31 µM

Next compound, please.
Fill in the blank: the reported TGI of CC(=C(c1ccc(OCCN(C)C)cc1)c1ccc(OCCN(C)C)cc1)c1ccc(Cl)cc1 is ____.
1.31 µM
